biological target: rat nNOS (Rattus norvegicus, UniProt P29476); construct: made in house; host or cells: E. coli; assay: NOS enzyme assay (hemoglobin capture), nNOS; assay type: biochemical
measuredParameter: selectivity for nNOS over eNOS (fold)
All answers are understood in fold, so give the number only.

Which measured selectivity for nNOS over eNOS value corresponds to Cc1cc(N)nc(CCc2cccc(CCc3cc(C)nc(N)c3)c2)c1 ?
111

Which measured selectivity for nNOS over eNOS value corresponds to Cc1cc(N)nc(CCc2ccc(CCc3cc(C)cc(N)n3)cc2)c1 ?
25

Which measured selectivity for nNOS over eNOS value corresponds to Cc1cc(N)nc(CCc2cncc(CCc3cc(C)nc(N)c3)c2)c1 ?
156

Which measured selectivity for nNOS over eNOS value corresponds to Cc1cc(N)nc(CCc2ccc3cc(CCc4cc(C)cc(N)n4)ccc3c2)c1 ?
7
